Tested on: T. cruzi-infected H9C2 cardiomyocytes, high-content imaging
EXPERIMENTAL PROTOCOL: intracellular T. cruzi amastigote inhibition, imaging, H9C2 host cardiomyocytes, host toxicity (AID 1159565);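 note: infected cells incubated 72 h after plating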
MEASUREMENT CONDITIONS: measured here: H9C2 host cell toxicity
MEASURED PARAMETER: IC50

Answered examples (5):
[
  {
    "COMPOUND": "Cn1c(CC(=O)NNC(=O)c2ccc3ccccc3n2)nc2ccccc21",
    "OBSERVED VALUE": "> 50 µM"
  },
  {
    "COMPOUND": "O=C1CN(Cc2ccco2)C2CS(=O)(=O)CC2N1c1ccc(Cl)cc1 (centres undefined)",
    "OBSERVED VALUE": "> 50 µM"
  },
  {
    "COMPOUND": "CS(=O)(=O)NC1CCC(Nc2ncc(Br)c(Nc3ccccc3C(N)=O)n2)CC1 (centres undefined)",
    "OBSERVED VALUE": "0.5 µM"
  },
  {
    "COMPOUND": "O=C(NCCc1ccccc1Cl)c1cccn1-c1cccnc1",
    "OBSERVED VALUE": "> 50 µM"
  },
  {
    "COMPOUND": "O=C(Nc1nc2ccccc2[nH]1)c1c(O)c2cccc3c2n(c1=O)CC3",
    "OBSERVED VALUE": "10 µM"
  }
]

Can you share its IC50? I mean this compound: COc1ccccc1C1CC(c2ccc(NS(C)(=O)=O)cc2)=NN1C(=O)c1cccs1 (centres undefined)
> 50 µM

And for `O=C(COc1ncnc2cc([N+](=O)[O-])ccc12)NC(=O)NC1CCCCC1` ?
> 50 µM

Ok, now `c1cncc(CN(Cc2ccco2)Cc2cn[nH]c2-c2cccs2)c1`
> 50 µM

----------
IC50 values by entry
Tested on: T. cruzi-infected H9C2 cardiomyocytes, high-content imaging
EXPERIMENTAL PROTOCOL: intracellular T. cruzi amastigote inhibition, imaging, H9C2 host cardiomyocytes, host toxicity (AID 1159565);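 note: infected cells incubated 72 h after plating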
MEASUREMENT CONDITIONS: measured here: H9C2 host cell toxicity
Your answer should be a plain number; it is taken to be in µM.

The examples below pair each entry with its known result.
[
  {
    "COMPOUND": "O=C(c1cc2cc(Cl)ccc2[nH]1)N1CCCCC1c1cccnc1 (stereo unspecified)",
    "UNIT": "µM",
    "IC50": 32
  },
  {
    "COMPOUND": "CC(=O)Nc1ccc(-c2cnc(N)c(-c3nc4ccc(F)cc4[nH]3)c2)cc1",
    "UNIT": "µM",
    "IC50": 0.79
  },
  {
    "COMPOUND": "Cc1nc2c(-c3n[nH]c(-c4ccccc4N)n3)cccn2c1C",
    "UNIT": "µM",
    "IC50": 5
  },
  {
    "COMPOUND": "CN1CCC(N(C)c2nccc(N3CCN(C(=O)c4cccc(-c5cccnc5)c4)CC3)n2)CC1",
    "UNIT": "µM",
    "IC50": 7.9
  }
]

Consider now this further compound.
# query: IC50 of entry `O=C(Nc1cccc(Cl)c1)Nc1ccc([N+](=O)[O-])cc1Cl`
4

----------
Test system: T. cruzi-infected H9C2 cardiomyocytes, high-content imaging
EXPERIMENTAL PROTOCOL: intracellular T. cruzi amastigote inhibition, imaging, H9C2 host cardiomyocytes, host toxicity (AID 1159565);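 note: infected cells incubated 72 h after plating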
MEASUREMENT CONDITIONS: measured here: amastigotes per cell
hey, just use 1 if measured IC50 is less than 2000 nM, otherwise 0

Reference set, count: 6
[
  {
    "COMPOUND": "O=c1cc(CSc2ccc(Cl)cc2)nc(-c2ccccn2)[nH]1",
    "CLASS LABEL": 1
  },
  {
    "COMPOUND": "O=C(Cc1ccccc1)Nc1ccccc1C(=O)Nc1nccs1",
    "CLASS LABEL": 0
  },
  {
    "COMPOUND": "N#Cc1cccc(CNc2ccc(-c3cnn(CC4CC4)c(=O)c3C#N)cc2)c1",
    "CLASS LABEL": 0
  },
  {
    "COMPOUND": "Nc1nc(-c2ccccc2)cc(-c2nc3ncccc3[nH]2)n1",
    "CLASS LABEL": 1
  },
  {
    "COMPOUND": "O=C(NCCc1cccnc1)c1csc(-c2ccccc2)n1",
    "CLASS LABEL": 1
  },
  {
    "COMPOUND": "CCCCn1nnnc1CSc1nc(C)cc(C)c1C#N",
    "CLASS LABEL": 1
  }
]

Please let me know if `O=C(Nc1nc2cc(Cl)ccc2o1)c1cccc(Cl)c1` shows IC50 below 2000 nM.
1

Follow-up entry: CC1CN(S(=O)(=O)c2ccc(NC(=O)c3cc(C4CC4)nc4c3cnn4C(C)C)cc2)CC(C)O1 (stereo not drawn)
1

For Cc1cnc(Nc2cc(Cc3ccccc3)nc(NC3CCC(O)CC3)n2)s1 (stereo not drawn) then?
1

And for `CCN(CC)c1ccc(S(=O)(=O)N(CC)CC)c2nonc12` ?
0

`C[C@@H](Oc1cc(-n2cnc3ccc(O[C@H]4CCNC4)cc32)sc1C(N)=O)c1ccccc1Cl` ?
0

Another compound to look at: `CN(Cc1ccccc1)Cc1nnnn1C1CCN(Cc2ccc(-n3ccnc3)cc2)CC1`
1

----------
Test system: T. cruzi-infected H9C2 cardiomyocytes, high-content imaging
EXPERIMENTAL PROTOCOL: intracellular T. cruzi amastigote inhibition, imaging, H9C2 host cardiomyocytes, host toxicity (AID 1159565);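 note: infected cells incubated 72 h after plating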
MEASUREMENT CONDITIONS: measured here: amastigotes per cell
MEASURED PARAMETER: pIC50
// scale note: pIC50 = -log10(conc_M); give the bare number

[
  {
    "SMILES REPRESENTATION": "CC(C)(C)CC(=O)NCCc1csc(-c2ccc(F)cc2)n1",
    "MEASURED PARAMETER": "pIC50",
    "OBSERVED VALUE": 6.10
  }
]

Query the reported pIC50 for T. cruzi-infected H9C2 cardiomyocytes, high-content imaging; item: `COc1ccc(S(=O)(=O)Nc2ccccc2OC)cc1NC(=O)CCCc1c[nH]c2ccccc12`
6.00

Item: `COc1ccccc1CNc1cc(C2CC2)nc(-c2nccn2C)n1`
6.00

Another: `Cc1cccc(Nc2nc(-c3ccccn3)cs2)n1`
6.10

----------
Tested on: T. cruzi-infected H9C2 cardiomyocytes, high-content imaging
EXPERIMENTAL PROTOCOL: intracellular T. cruzi amastigote inhibition, imaging, H9C2 host cardiomyocytes, host toxicity (AID 1159565);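 note: infected cells incubated 72 h after plating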
MEASUREMENT CONDITIONS: measured here: amastigotes per cell
Examples of compounds with documented pIC50 follow.
By convention, pIC50 is the negative base-10 log of a molar concentration.

Could you share which pIC50 value was measured for `O=C(c1cccc(Nc2ncc(-c3ccc4c(c3)OCO4)cn2)c1)N1CCOCC1` ?
6.10

Cool, now `Cc1nc(C(=O)Nc2ccc3c(c2)OCO3)nn1-c1ccc(Cl)cc1`
6.00

# repeat for `COc1ccc(C(=O)[C@H]2C[C@@H]2CN(Cc2ccccn2)Cc2ccccn2)cc1`
6.00

Record: `N#Cc1cccc(Cc2cc(Nc3cc(C4CC4)[nH]n3)nc(N3CC[C@H]3C(N)=O)n2)c1`
6.00

What would you report for `NS(=O)(=O)c1ccc(CNC(=O)c2ccc([N+](=O)[O-])s2)cc1` ?
6.10

----------
System: T. cruzi-infected H9C2 cardiomyocytes, high-content imaging
EXPERIMENTAL PROTOCOL: intracellular T. cruzi amastigote inhibition, imaging, H9C2 host cardiomyocytes, host toxicity (AID 1159565);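 note: infected cells incubated 72 h after plating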
MEASUREMENT CONDITIONS: measured here: H9C2 host cell toxicity
Entries and their IC50

Past entries and their recorded results:
[
  {
    "SMILES REPRESENTATION": "O=C(CN1CCN(S(=O)(=O)c2cccc([N+](=O)[O-])c2)CC1)Nc1ccc(Oc2ccccc2)cc1",
    "IC50": "> 50 µM"
  },
  {
    "SMILES REPRESENTATION": "CCCCN(C(=O)c1ccc(NC(=O)C(C)C)cc1)c1ccccc1",
    "IC50": "> 50 µM"
  }
]

Now for another entry.
Entry `Cc1[nH]n2c(=O)c3c(nc2c1-c1ccc(Br)cc1)CCCC3` has what IC50?
> 50 µM

----------
System: T. cruzi-infected H9C2 cardiomyocytes, high-content imaging
EXPERIMENTAL PROTOCOL: intracellular T. cruzi amastigote inhibition, imaging, H9C2 host cardiomyocytes, host toxicity (AID 1159565);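 note: infected cells incubated 72 h after plating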
MEASUREMENT CONDITIONS: measured here: amastigotes per cell
MEASURED PARAMETER: IC50 (nM)
Number only, in nM; omit the unit.

Completed entries (count: 2):
[
  {
    "SMILES REPRESENTATION": "O=C(NCc1nnc2n1CCCCC2)c1ccc(-c2ccc(F)cc2)o1",
    "ASSAY SYSTEM": "T. cruzi-infected H9C2 cardiomyocytes, high-content imaging",
    "UNIT": "nM",
    "IC50": 1000
  },
  {
    "SMILES REPRESENTATION": "Cn1ccnc1-c1nc(NCc2ccccc2Cl)cc(C2CC2)n1",
    "ASSAY SYSTEM": "T. cruzi-infected H9C2 cardiomyocytes, high-content imaging",
    "UNIT": "nM",
    "IC50": 790
  }
]

Turning now to a further compound:
May I ask what IC50 has been recorded for `O=C(NCCCn1cnc2ccccc21)c1ccc(NC(=O)c2ccco2)cc1` ?
1300
